Attribution: patent US20200239420A1

target: indoleamine 2, 3-dioxygenase (IDO1) (Homo sapiens, UniProt P14902); construct: to induce the expression of indoleamine 2, 3-dioxygenase (IDO1); host or cells: human PBMC stimulated with IFN-gamma and LPS; test: IDO1 PBMC RapidFire MS assay (kynurenine detection); format: cell-based; conditions: IFN-γ/LPS-stimulated human PBMC, 2 days, kynurenine by mass spectrometry; read-out: PBMC pIC50 (converted)
Sequence (P14902 whole entry): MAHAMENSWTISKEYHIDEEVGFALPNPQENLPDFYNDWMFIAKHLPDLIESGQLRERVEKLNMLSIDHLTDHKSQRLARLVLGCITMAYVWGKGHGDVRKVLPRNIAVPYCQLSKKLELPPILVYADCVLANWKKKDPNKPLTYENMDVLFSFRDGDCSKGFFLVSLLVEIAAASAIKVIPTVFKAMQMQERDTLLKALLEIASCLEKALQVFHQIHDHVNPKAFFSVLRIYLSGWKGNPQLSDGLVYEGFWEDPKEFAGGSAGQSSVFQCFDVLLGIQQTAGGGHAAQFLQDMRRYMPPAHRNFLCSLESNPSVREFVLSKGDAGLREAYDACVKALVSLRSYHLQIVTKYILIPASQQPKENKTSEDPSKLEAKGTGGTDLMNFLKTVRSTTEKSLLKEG
measurement label: IC50 (nM)

Field: example entries. Status: answers known.
O=C(Nc1ccc(Cl)cc1)[C@@H]1C[C@]12CC[C@H](c1ccnc3ccccc31)CC2 (relative stereo) [Example 1]; 63.1
O=C(NC1CC2(CCC(c3ccnc4ccccc34)CC2)C1)c1ccc(Cl)s1 (stereo not drawn) [Example 4]; 20
O=C(NC1CC2(CCC(c3ccnc4ccccc34)CC2)C1)c1ccc(Cl)cc1 (stereo not drawn) [Example 3]; 79.4

a: O=C(Nc1ccc(Cl)cc1)[C@@H]1C[C@]12CC[C@@H](c1ccnc3ccccc31)CC2 (relative stereo) [Example 2]
b: O=C(CC1CC2(CCC(c3ccnc4ccccc34)CC2)C1)Nc1ccc(Cl)cc1 (stereo not drawn) [Example 5]
c: O=C(Nc1ccc(Cl)cc1)C1CC2(CCC(c3ccnc4ccc(F)cc34)CC2)C1 (stereo not drawn) [Example 6]
Q. Please list these in order of increasing IC50. Thank you! Labels, requested order.
A. c, b, a

====

experiment: Rat PK; assay type: in vivo; details: rat, in vivo; PO, 3 mg/kg, male Han Wistar rats, n = 3
measurement label: half-life (h)

O=C(Nc1ccc(Cl)cc1)[C@@H]1C[C@]12CC[C@H](c1ccnc3ccccc31)CC2 (relative stereo); 7.16
O=C(NC1CC2(CCC(c3ccnc4ccccc34)CC2)C1)c1ccc(Cl)s1 (centres unmarked); 5.89

====

experiment: Rat PK; assay type: in vivo; conditions: rat, in vivo; IV, 1 mg/kg, male Han Wistar rats, n = 3
measurement label: half-life (h)
Write the value in h as a bare number.

Q. Could you tell me which half-life is on file for O=C(Nc1ccc(Cl)cc1)[C@@H]1C[C@]12CC[C@H](c1ccnc3ccccc31)CC2 (relative stereo) [Example 1] ?
A. 5.36

====

experiment: Rat PK; format: in vivo; details: rat, in vivo; PO, 3 mg/kg, male Han Wistar rats, n = 3
measurement label: AUC(0-t) (ng·h/mL)

O=C(Nc1ccc(Cl)cc1)[C@@H]1C[C@]12CC[C@H](c1ccnc3ccccc31)CC2 (relative stereo); 12300
O=C(NC1CC2(CCC(c3ccnc4ccccc34)CC2)C1)c1ccc(Cl)s1 (centres unmarked); 14400

====

experiment: Rat PK; format: in vivo; details: rat, in vivo; PO, 3 mg/kg, male Han Wistar rats, n = 3
measurement label: Cmax (ng/mL)

O=C(NC1CC2(CCC(c3ccnc4ccccc34)CC2)C1)c1ccc(Cl)s1 (centres unmarked) [Example 4]; 1140
O=C(Nc1ccc(Cl)cc1)[C@@H]1C[C@]12CC[C@H](c1ccnc3ccccc31)CC2 (relative stereo) [Example 1]; 1000

====

test: Rat PK; assay type: in vivo; conditions: rat, in vivo; IV, 1 mg/kg, male Han Wistar rats, n = 3
measurement label: AUC(0-t) (ng·h/mL)
Write the value in ng·h/mL as a bare number.

Q. Could you tell me which AUC(0-t) is on file for O=C(Nc1ccc(Cl)cc1)[C@@H]1C[C@]12CC[C@H](c1ccnc3ccccc31)CC2 (relative stereo) [Example 1] ?
A. 4450
